target: human JAK1 (a.a. 837-1142) (Homo sapiens, UniProt P23458); construct: human JAK1 (a.a. 837-1142); His tag (N); made in house; host or cells: insect cells (baculovirus); test: In vitro JAK kinase assay (HTRF, phosphorylation of a biotinylated peptide), JAK1; assay type: biochemical; settings: method AA1 (90 μM ATP) or AA2 (1000 μM ATP), not stated per value; read-out: JAK1 IC50
Sequence (P23458 849-1154): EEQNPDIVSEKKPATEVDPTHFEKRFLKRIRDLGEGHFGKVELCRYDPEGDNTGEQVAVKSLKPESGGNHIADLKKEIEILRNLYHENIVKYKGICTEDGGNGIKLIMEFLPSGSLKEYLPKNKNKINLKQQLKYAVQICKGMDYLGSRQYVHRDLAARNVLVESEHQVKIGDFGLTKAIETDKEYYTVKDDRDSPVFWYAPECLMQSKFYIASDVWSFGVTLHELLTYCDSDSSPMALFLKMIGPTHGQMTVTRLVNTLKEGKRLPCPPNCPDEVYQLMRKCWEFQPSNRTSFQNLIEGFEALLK
pIC50: −log10 of the molar value. Structures can show the parent of a compound that is named as a salt.
Tick TRUE if pIC50 is 8 or greater. Tick FALSE if pIC50 is less than 8.

Look over these answered cases.
Cc1ccc(NC(=O)N2CCC(CC(=O)Nc3ccc4cc3CCc3cncc(c3)Nc3ncc(Cl)c(n3)N4)CC2)cc1 [Example A151, bis(trifluoroacetate)]    TRUE
O=C(Nc1ccc2cc1CCc1cccc(c1)Nc1ncc(Cl)c(n1)N2)C1CCN(C(=O)c2ccco2)CC1 [Example A32, trifluoroacetate]    FALSE
COc1cccc(N2CCC(CC(=O)Nc3ccc4cc3CCc3cncc(c3)Nc3ncc(Cl)c(n3)N4)CC2)c1C#N [Example A233, tris(trifluoroacetate)]    TRUE

# check: pIC50 of O=C(CC1CCN(c2nncs2)CC1)Nc1ccc2cc1CCc1cccc(c1)Nc1ncc(Cl)c(n1)N2 [Example A183, bis(trifluoroacetate)] is greater than or equal to 8
TRUE
